Test system: NCI-H522
Assay: NCI tumour cell line growth inhibition, 48 h
The source made the active and inactive calls. Cut-off read from the data, not from the text of the source: active = GI50 up to about 1.1 µM and inactive = higher. Where a SMILES comes first, the peptide text is derived from it. [ ]: non-standard residue; d: D form. The star is where a group is joined. Phe(4-NO2) = N[CH](Cc1ccc([N+](=O)[O-])cc1)C(=O)O; Boc = CC(C)(C)OC(=O)*; OtBu = CC(C)(C)O*
ENDPOINT LABEL: GI50

Look over these answered cases.
CCOC(=O)c1c(N2CCOCC2)ncn(-c2cccc(Cl)c2)c1=O; > 100 µM (inactive)
COC(=O)C(Cc1ccc([N+](=O)[O-])cc1)NC(=O)C(CC(=O)OC(C)(C)C)NC(=O)OC(C)(C)C (stereo not given) (Boc-Asp(OtBu)-[Phe(4-NO2)]-OMe; configuration not given here); 63.5 µM (inactive)
O=C1C=C2SC3C[C@@]24CC1[N+]1=c2c4c(c(O)c4c2=C(C=N4)CC1)N3; 1.58 µM (inactive)
CSc1nnnc2ccccc12; > 100 µM (inactive)
Cc1n[nH]c(=O)n1C1CCCC1; > 100 µM (inactive)

Case `CC1=CC(=O)N2[C@H](OC[C@@H]2C(C)C)O1` , NCI-H522, GI50 recorded as > 100 µM (inactive)

Case `CC(=O)OCCN1c2ccccc2Sc2cnccc21` , NCI-H522, GI50 recorded as > 10 µM (inactive)

Case `C1=N/CCNCCNCC/N=C/c2ccccc2OCc2cccc(n2)COc2ccccc2/1` , NCI-H522, GI50 recorded as 37.8 µM (inactive)

Case CC(C)C(NCc1c2ccccc2nc2ccccc12)C(=O)O (stereo not given) , NCI-H522, GI50 recorded as 22 µM (inactive)

Case `CCN(CC)CCCn1cnc2ncccc2c1=O` , NCI-H522, GI50 recorded as > 100 µM (inactive)
